Origin of values: patent US6124324A

studyTarget: purified recombinant HIV RT (Human immunodeficiency virus type 1 group M subtype B)
Construct: purified recombinant HIV RT; purchased Amersham, Arlington Heights, Ill; (Quan-T-RT system)
protocolNotes: Purified RT assay, cell-free Quan-T-RT system (scintillation proximity)
Format: biochemical
testConditions: IC50 rRT, Table 1 and text; recombinant HIV RT
Reported values of IC50 for individual entries
Field format: number, assumed nM, no unit text.

Sample answers from the record:
S=C(NCc1ccc2c(c1)OCO2)Nc1ccc(Br)cn1	700
S=C(NCc1ccco1)Nc1ccc(Br)cn1	1200
S=C(NCCc1c[nH]c2ccccc12)Nc1ccc(Br)cn1	900
S=C(NCCc1cccs1)Nc1ccc(Br)cn1	800

The reported purified recombinant HIV RT (Human immunodeficiency virus type 1 group M subtype B) IC50 of S=C(NCCN1CCCC1)Nc1ccc(Br)cn1 is 4900

----------
Test system: HIV-1 strain RT-MDR (V106A)
protocolNotes: microbe, parasite or virus in culture
Format: cell-based
testConditions: inhibition of p24 antigen production in PBMC; read-out: IC50 RT-MDR (V106A)
testReadout: IC50 (nM)
A number alone suffices; assume nM.

Cc1ccnc2c1NC(=O)c1cccnc1N2C1CC1 [Nevirapine, reference compound]	5000

So for Cc1cn([C@H]2C[C@H](N=[N+]=[N-])[C@@H](CO)O2)c(=O)[nH]c1=O [AZT, reference compound] , the logged IC50 turned out to be 200

----------
studyTarget: purified recombinant HIV RT (Human immunodeficiency virus type 1 group M subtype B, UniProt P04585)
Construct: purified recombinant HIV RT; purchased Amersham, Arlington Heights, Ill; (Quan-T-RT system)
protocolNotes: Purified RT assay, cell-free Quan-T-RT system (scintillation proximity)
Type: biochemical
testConditions: Table 1 and text; recombinant HIV RT; read-out: IC90 rRT
In this section, each of the compounds is paired with its reported IC90.

Guide cases for IC90, answers given:
S=C(NCCc1ccccn1)Nc1ccc(Br)cn1 [Trovirdine, reference compound]	12 µM
S=C(NCc1ccc2c(c1)OCO2)Nc1ccc(Br)cn1 [HI-257]	> 100 µM

Field: next compound
get_value(item= S=C(NCCc1c[nH]c2ccccc12)Nc1ccc(Br)cn1 [HI-442] , readout=IC90) returns > 100 µM

----------
protocolNotes: Microculture Tetrazolium Assay (MTA), cytotoxicity
Format: cell-based
testReadout: CC50

CCOCn1c(Cc2ccccc2)c(C(C)C)c(=O)[nH]c1=O [MKC-442, reference compound]	> 100 µM

// CC50 lookup, compound = S=C(NCCc1ccccn1)Nc1ccc(Br)cn1 [Trovirdine, reference compound] , result: > 100 µM

----------
Tested on: HIV-1 strain A17 (Y181C)
protocolNotes: microbe, parasite or virus in culture
Format: cell-based
testConditions: Human immunodeficiency virus 1, PBMC, read-out: IC50 A17 (Y181C)
testReadout: IC50 (nM)
Write down the numeric answer in nM and omit the unit.

# example entries with known answers
Fc1ccccc1CCNC(=S)Nc1ccc(Br)cn1	200
S=C(NCCc1ccccn1)Nc1ccc(Br)cn1 [Trovirdine, reference compound]	500
S=C(NCCc1cccs1)Nc1ccc(Br)cn1	48

Reported IC50 for CC(C)Nc1cccnc1N1CCN(C(=O)c2cc3cc(NS(C)(=O)=O)ccc3[nH]2)CC1 [Delavirdine, reference compound] was 50000

----------
IC90 values, listed per item
studyTarget: purified recombinant HIV RT (Human immunodeficiency virus type 1 group M subtype B, UniProt P04585)
Construct: purified recombinant HIV RT; purchased Amersham, Arlington Heights, Ill; (Quan-T-RT system)
protocolNotes: Purified RT assay, cell-free Quan-T-RT system (scintillation proximity)
Format: biochemical
testConditions: Table 1 and text; recombinant HIV RT; read-out: IC90 rRT

The reported value for S=C(NCCc1cccs1)Nc1ccc(Br)cn1 in terms of IC90 is 15 µM
